Source: PubChem BioAssay

assay: S. cerevisiae RM11-1a growth modifiers, primary screen, strain RM11-1a, OD600, basal, 24 h (AID 1177); conditions: OD600, 24 h, higher = more signal, called active from +8 up or from −8 down;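 further: cultures grown under basal conditions with no added stressor; test concentration not given here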
Calls of active or inactive are those of the source.
Parameter measured: z-score

Record summary for `CSCC[C@@H]1NC(=O)CC=C[C@@H](C)COC(=O)[C@H](C)COC1=O` : reported z-score = -2.43 (inactive)

# compound `COC(=O)[C@@H]1CC[C@H](C)[C@@H](c2ccc(C)cc2)N1C(=O)c1ccc(C=NOC[C@@H](O)[C@H]2O[C@@H]3OC(C)(C)O[C@@H]3[C@H]2O)cc1` ; its z-score = -0.168 (inactive)

z-score measured on `CO[C@H]1COC(=O)[C@H](C)COC(=O)[C@H](C)NC(=O)CC=C[C@H]1C` = -0.419 (inactive)

get_value(item= `CON=C(C)CCN1CCCc2nc(C)c(C)cc21` , readout=z-score) returns -0.1 (inactive)

z-score for `O=C1C[C@@H](O)[C@@H](O)[C@@H]2[C@@H]3C(=O)N(Cc4ccccc4)C(=O)[C@@H]3CC[C@H]12` is -0.163 (inactive)

Given item `C[C@@H](c1ccccc1)N1C(=O)[C@H]2[C@H]3[C@H](O)[C@H](O)CC(=NNC(=O)OCc4ccccc4)[C@@H]3CC[C@H]2C1=O` , the value recorded as its z-score is -0.396 (inactive)

Lab note: measured z-score of `COc1ccc(COC(=O)NN=C2C[C@@H](O)[C@@H](O)[C@@H]3[C@@H]4C(=O)N(Cc5ccc6c(c5)OCO6)C(=O)[C@@H]4CC[C@H]23)cc1` was 0.139 (inactive)

Please fill in: z-score reported for `CCCC[C@H]1CN2[C@@H](CC[C@@H](C)[C@@H]2c2ccc(Br)cc2)C(=O)O1` = 0.0621 (inactive)

Given item `COC(=O)C1=C(C)N(Cc2ccccc2)C2=C3C(=O)OCC[C@@H]3[C@@](O)(C(=O)OC)C(=O)N2[C@@H]1c1ccccc1` , the value recorded as its z-score is 0.681 (inactive)

# z-score of `COc1ccc2c(c1)O[C@@H](c1cccc(C(F)(F)F)c1)[C@H](O)C2=O` = -1.04 (inactive)

Entry C[C@@H]1CC[C@H]2C(=O)OC(Cc3ccccc3)CN2[C@H]1c1ccc(Br)cc1 (some centres not stated) — recorded z-score = 0.2 (inactive)

For record `CO[C@@H]1[C@H](O)CO[C@H]1C=Cc1ccccc1` the listed z-score is -0.113 (inactive)

In plain terms, CC(CCN1CCc2nc(-c3ccccc3)c(-c3ccccc3)cc2C1)=NOC(C)CN1CCCc2nc(C)c(C)cc21 (configuration not stated) has a documented z-score of -0.572 (inactive)

The compound listed as CCOC(=O)[C@H](Cc1ccccc1)NC(=O)CCC1CC(OC(=O)NCc2cccc3ccccc23)CC2(CCCC(COC(=O)NCCc3ccc(Cl)cc3)O2)O1 (some centres not stated) shows z-score equal to -0.424 (inactive)

The compound `COc1ccc(O[C@H]2C=C[C@@H](C#Cc3ccccc3)O[C@@H]2CO)cc1` showed z-score equal to -0.76 (inactive)

Sure, the documented z-score for `C[C@H]1CC[C@H]2C(=O)N[C@H](Cc3ccccc3)C(=O)N2[C@@H]1c1ccccc1` is 0.0033 (inactive)

z-score reading for `O=C1C2=CC[C@H]3C(=O)N(C[C@@H]4CCCO4)C(=O)[C@H]3[C@H]2[C@H](O)[C@@H]2O[C@H]12` : -0.511 (inactive)
